In this section, each of the binders is paired with its reported OD450.
TARGET: T1, naked peptide SMEDYVNFNF (human)
T1 peptide: SMEDYVNFNF
MEASUREMENT DESCRIPTION: ELISA naked peptide; scFv 1 ug/mL; repI
All answers are understood in OD, so give the number only.

Recorded OD450, per entry:
Comparative antibody 2 (Comp-2) scFv, 243LO326 (VH SEQ ID NO: 51 and VL SEQ ID NO: 52 of WO 2022/195028 A2), His-tagged (scFv) scFv: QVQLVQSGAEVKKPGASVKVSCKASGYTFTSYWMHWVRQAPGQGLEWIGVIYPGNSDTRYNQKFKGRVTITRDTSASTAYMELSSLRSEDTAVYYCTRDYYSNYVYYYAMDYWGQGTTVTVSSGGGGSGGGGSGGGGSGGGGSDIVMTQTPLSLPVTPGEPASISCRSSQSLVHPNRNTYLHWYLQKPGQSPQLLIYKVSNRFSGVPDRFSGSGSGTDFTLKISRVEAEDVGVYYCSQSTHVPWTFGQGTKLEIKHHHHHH
0.03
Comparative antibody 3 (Comp-3) scFv, SR_92R (Somovilla-Crespo et al. 2018), His-tagged (scFv) scFv: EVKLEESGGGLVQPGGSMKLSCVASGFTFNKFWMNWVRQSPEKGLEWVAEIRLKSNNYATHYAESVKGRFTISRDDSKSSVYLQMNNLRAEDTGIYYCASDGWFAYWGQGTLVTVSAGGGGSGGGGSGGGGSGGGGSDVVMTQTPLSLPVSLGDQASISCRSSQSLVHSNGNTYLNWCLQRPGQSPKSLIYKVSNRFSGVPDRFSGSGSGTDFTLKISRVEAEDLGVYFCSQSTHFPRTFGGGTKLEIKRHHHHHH
0.05

Consider now this further binder.
query: For the binder CCR9_HUM2 scFv (humanized anti-CCR9 scFv, SEQ ID NO: 17 with C-terminal 6xHis tag) (scFv) scFv: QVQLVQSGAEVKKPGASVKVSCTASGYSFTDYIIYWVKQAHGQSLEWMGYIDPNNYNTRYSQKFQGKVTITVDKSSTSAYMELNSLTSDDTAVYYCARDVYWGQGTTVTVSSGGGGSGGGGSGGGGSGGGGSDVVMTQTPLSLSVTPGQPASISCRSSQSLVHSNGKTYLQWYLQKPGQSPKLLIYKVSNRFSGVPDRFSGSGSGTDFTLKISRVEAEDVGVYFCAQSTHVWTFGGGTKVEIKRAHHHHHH , report OD450.
result: 1.54
